Source listed as the supplement of paper PMC10307832.

Task for the reader: assign each of the following compounds its reported relative viability.
system: NCI-H520; assay: relative viability (nuclei count vs DMSO), 5 days (fraction); higher = more cells survive; conditions: first compound 0.1265 µM
A bare number is all that is needed in reply.

Data request: Tell me relative viability reported for Cc1sc2c(c1C)C(c1ccc(Cl)cc1)=N[C@@H](CC(=O)OC(C)(C)C)c1nnc(C)n1-2 [JQ1] + Nc1nc2[nH]cc(CCc3ccc(C(=O)N[C@@H](CCC(=O)O)C(=O)O)cc3)c2c(=O)[nH]1 [Pemetrexed] (partner 0.2 µM)
Data returned: 0.536

Data request: Give relative viability for the following compound: Cc1sc2c(c1C)C(c1ccc(Cl)cc1)=N[C@@H](CC(=O)OC(C)(C)C)c1nnc(C)n1-2 [JQ1] + Cc1nc(NC(=O)N2CCC[C@H]2C(N)=O)sc1-c1ccnc(C(C)(C)C(F)(F)F)c1 [Alpelisib] (partner 2 µM)
Data returned: 0.934
